details: in sec-butanol, 313.15 K
readoutType: solubility (mole fraction)
Answer with a number only.

The value of solubility (mole fraction) measured for the compound CC(C)(C)OC(=O)N[C@@H](CC(N)=O)C(=O)O turned out to be 0.00406

* * *

conditions: in 2-butanone, 323.15 K
readoutType: solubility (mole fraction)
Response field accepts a number only; no unit should be typed.

Given item CC(C)(C)OC(=O)N[C@@H](CC(N)=O)C(=O)O , the value recorded as its solubility (mole fraction) is 0.00171

* * *

conditions: in n-pentanol, 318.15 K
readoutType: solubility (mole fraction)
// response body must contain only the number

Lab book: solubility (mole fraction) of CC(C)(C)OC(=O)N[C@@H](CC(N)=O)C(=O)O noted as 0.00302

* * *

conditions: in 2-butanone, 283.15 K
readoutType: solubility (mole fraction)

Measured solubility (mole fraction), CC(C)(C)OC(=O)N[C@@H](CC(N)=O)C(=O)O : 0.000534

* * *

conditions: in ethanol, 303.15 K
readoutType: solubility (mole fraction)
# print the numeric value only

Value of measured solubility (mole fraction) for the entry CC(C)(C)OC(=O)N[C@@H](CC(N)=O)C(=O)O : 0.00454

* * *

details: in ethanol, 298.15 K
readoutType: solubility (mole fraction)
Answer with the value's number alone.

Kindly note the recorded solubility (mole fraction) for CC(C)(C)OC(=O)N[C@@H](CC(N)=O)C(=O)O , which is 0.00375

* * *

conditions: in methanol, 303.15 K
readoutType: solubility (mole fraction)
Just the number, please, no unit after it.

The recorded solubility (mole fraction) for entry CC(C)(C)OC(=O)N[C@@H](CC(N)=O)C(=O)O equals 0.0111

* * *

conditions: in acetone, 283.15 K
readoutType: solubility (mole fraction)

Just so you know, measured solubility (mole fraction) for CC(C)(C)OC(=O)N[C@@H](CC(N)=O)C(=O)O came out at 0.000897

* * *

settings: in ethanol, 283.15 K
readoutType: solubility (mole fraction)
Returns: the value as a bare number; no unit string appended.

GET /value?item= CC(C)(C)OC(=O)N[C@@H](CC(N)=O)C(=O)O &field=solubility (mole fraction) returns 0.00213

* * *

details: in water, 293.15 K
readoutType: solubility (mole fraction)

Per the records, this compound ( CC(C)(C)OC(=O)N[C@@H](CC(N)=O)C(=O)O ) has solubility (mole fraction) equal to 0.000359

* * *

conditions: in methanol, 323.15 K
readoutType: solubility (mole fraction)

Short answer for CC(C)(C)OC(=O)N[C@@H](CC(N)=O)C(=O)O : solubility (mole fraction) was 0.022

* * *

conditions: in n-butanol, 323.15 K
readoutType: solubility (mole fraction)
Please give the numeric answer without any surrounding text.

For CC(C)(C)OC(=O)N[C@@H](CC(N)=O)C(=O)O the compound record lists solubility (mole fraction) as 0.00377

* * *

details: in water, 288.15 K
readoutType: solubility (mole fraction)
Answer field: number only, no words.

# solubility (mole fraction) (compound: CC(C)(C)OC(=O)N[C@@H](CC(N)=O)C(=O)O ) is 0.000288

* * *

conditions: in acetone, 323.15 K
readoutType: solubility (mole fraction)
Number, no unit, nothing else.

solubility (mole fraction) recorded for this molecule, CC(C)(C)OC(=O)N[C@@H](CC(N)=O)C(=O)O , is 0.00308

* * *

settings: in methanol, 308.15 K
readoutType: solubility (mole fraction)
Lab note: jot down the number only; don't add units.

// solubility (mole fraction) value for CC(C)(C)OC(=O)N[C@@H](CC(N)=O)C(=O)O : 0.013
